Biological target: hMC2 receptor (Homo sapiens, UniProt Q01718)
Sequence (Q01718 whole entry): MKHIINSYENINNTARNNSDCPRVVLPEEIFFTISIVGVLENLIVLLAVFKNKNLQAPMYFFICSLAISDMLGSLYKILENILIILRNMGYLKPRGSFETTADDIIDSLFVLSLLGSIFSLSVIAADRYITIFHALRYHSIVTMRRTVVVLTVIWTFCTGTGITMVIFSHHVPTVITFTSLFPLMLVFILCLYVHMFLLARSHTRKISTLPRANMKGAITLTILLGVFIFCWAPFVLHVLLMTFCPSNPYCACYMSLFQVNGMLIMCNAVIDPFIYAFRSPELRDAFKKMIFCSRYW
Sequence (Q8TCY5 whole entry partner): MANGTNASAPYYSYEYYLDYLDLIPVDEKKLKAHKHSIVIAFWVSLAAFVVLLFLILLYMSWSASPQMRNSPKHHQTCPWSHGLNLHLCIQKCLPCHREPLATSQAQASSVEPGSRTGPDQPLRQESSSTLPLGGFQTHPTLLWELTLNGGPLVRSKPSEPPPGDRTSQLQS
Assay: hMC2 membrane binding assay ([125I]ACTH (1-39) Tyr23, SPA)
Design: scale not given here
Conditions: crude hMC2R membranes from CRE-bla-CHO-K1 cells expressing hMC2 receptor and hMRAP; [125I]ACTH (1-39) Tyr23 0.2 nM; 1.5 hours at room temperature; read-out: MC2R binding potency
pKi: −log10 of the molar value.
Known pKi of a selection of compounds

Observe how each entry below is paired with its result.
# COMPOUND, pKi
data = [
    ("CCOc1ncccc1-c1ccc(N2CCN(C(=O)N3CCC[C@H]3C(F)(F)F)C[C@H]2CC)c(C(=O)N[C@@H]2CCN(C)C2)n1 [Compound 1-372]", "> 8.00"),
    ("CCOc1ncccc1-c1ccc(N2CCN(C(=O)c3ccc(Cl)cc3C(F)(F)F)C[C@H]2CC)c(C(=O)NCC2=NCCN2C)n1 [Compound 1-227]", "> 8.00"),
]

Consider the additional compound presented here.
Looking up CCOc1ncccc1-c1ccc(N2CCN(C(=O)c3ccc(Cl)cc3C(F)F)C[C@H]2CC)c(C(=O)N[C@@H]2CCNC2)c1F [Compound 1-190] , I see its pKi listed as > 8.00

* * *

Target: hMC2 receptor (Homo sapiens)
Assay: hMC2 membrane binding assay ([125I]ACTH (1-39) Tyr23, SPA)
Design: scale not given here
Conditions: crude hMC2R membranes from CRE-bla-CHO-K1 cells expressing hMC2 receptor and hMRAP; [125I]ACTH (1-39) Tyr23 0.2 nM; 1.5 hours at room temperature; read-out: MC2R binding potency
Method: Crude membrane fractions are prepared from CRE-bla-CHO-K1 cells stably expressing hMC2 receptor and hMRAP accessory protein (Thermo Fisher). […] The hMC2 membrane binding assay utilizes the following components: radiolabel [^125I]ACTH (1-39) Tyr23 (PerkinElmer), wheatgerm agglutinin coated PVT SPA beads (PerkinElmer), crude hMC2R membranes, and compounds. […] Assay plates are read using a Top Count NXT and Ki values for compounds are determined using a GraphPad Prism 6 non-linear regression analysis.
pKi: −log10 of the molar value.
Known pKi of a selection of compounds

Observe how each entry below is paired with its result.
# COMPOUND, MEASURE, VALUE MEASURED
measured = [
    ("CCOc1ccccc1-c1ccc(N2CCN(C(=O)[C@H]3CC[C@@H](C(F)(F)F)CC3)C[C@H]2CC)c(C(=O)N[C@@H]2CCN(C)C2)n1 [Compound 1-336]", "pKi", "> 8.00"),
    ("CCOc1ncccc1-c1ccc(N2CCN(C(=O)c3ccc(Cl)cc3C(F)(F)F)C[C@H]2CC)c(C(=O)N[C@@H]2CCN(C)C2)n1 [Compound 1-152]", "pKi", "> 8.00"),
    ("CC[C@@H]1CN(C(=O)c2ccc(C(F)(F)F)cc2Cl)CCN1c1ccc(-c2ccccc2C(=O)OC)cc1C(=O)NCCN [Compound 1-19]", "pKi", "7.00 to 8.00"),
    ("CCOc1ccccc1-c1ccc(N2CCN(C(=O)C3(C(F)(F)F)CCCC3)C[C@H]2CC)c(C(=O)N[C@H]2CCN(C)C2)n1 [Compound 1-401]", "pKi", "> 8.00"),
    ("CCOc1ncccc1-c1ccc(N2CCN(C(=O)c3ccc(C(F)(F)F)cc3N3CCC(CN)C3)C[C@H]2CC)c(C(=O)NCCN)c1 (stereo partly drawn) [Compound 1-50]", "pKi", "> 8.00"),
]

With hMC2 receptor (Homo sapiens) as the test system, CCOc1ncccc1-c1ccc(N2CCN(C(=O)C34CCC(C(F)(F)F)(CC3)CC4)C[C@H]2CC)c(C(=O)N[C@@H]2CCNC2)n1 [Compound 1-274] showed pKi of > 8.00

* * *

Molecular target: hMC2 receptor (Homo sapiens)
Experiment: hMC2 membrane binding assay ([125I]ACTH (1-39) Tyr23, SPA)
Design: scale not given here
Details: crude hMC2R membranes from CRE-bla-CHO-K1 cells expressing hMC2 receptor and hMRAP; [125I]ACTH (1-39) Tyr23 0.2 nM; 1.5 hours at room temperature; read-out: MC2R binding potency
pKi: −log10 of the molar value.
Known pKi of a selection of molecules

Observe how each entry below is paired with its result.
# SMILES, pKi
data = [
    ("CCOc1ncccc1-c1ccc(N2CCN(C(=O)c3ccc(Cl)cc3C(F)(F)F)C[C@H]2CC)c(C(=O)N[C@@H]2CCNC2)c1F", "> 8.00"),
    ("CCOc1ncccc1-c1ccc(N2CCN(C(=O)c3ccc(OC)nc3C(F)(F)F)C[C@H]2CC)c(C(=O)NC2CN(C)C2)n1", "> 8.00"),
    ("CCOc1cccnc1-c1ccc(N2CCN(C(=O)c3ccc(C(F)(F)F)cc3Cl)C[C@H]2CC)c(C(=O)NCCN)c1", "7.00 to 8.00"),
]

Consider the additional molecule presented here.
Looking up CCOc1ncccc1-c1ccc(N2CCN(C(=O)c3ccc(F)cc3C(F)(F)F)C[C@H]2CC)c(C(=O)N[C@@H]2CCN(C)C2)n1 , I see its pKi listed as > 8.00
